experiment: Inhibition of ERK phosphorylation in KRAS G12D mutant dependent human HPAF-II cells incubated for 2 hrs by HTRF assay; format: cell-based
Value kind: IC50 (µM)

{"Compound structure string": "Cc1nc2c(F)c(-c3cccc4ccc(F)cc34)c(CCC#N)cc2c2c1cc(CN1CCCCC1=O)n2[C@H]1[C@H]2CN[C@@H]1C2", "IC50 (µM)": 0.039}

(1) CCOc1nc2c(F)c(-c3cc(O)cc4ccccc34)c(CCC#N)cc2c2c1cc(CCC(=O)N(C)C)n2[C@H]1[C@H]2CN[C@@H]1C2
(2) CN(C)C(=O)CCc1nc2c(N3CC(N(C)C)C3)nc3c(F)c(-c4cc(O)cc5ccccc45)c(CCC#N)cc3c2n1[C@H]1[C@H]2CN[C@@H]1C2
Query: Smaller IC50 value, 1 vs 2 ? Refer to your chosen item by its label in the answer.
Result: 1

Every entry's value here was drawn from ChEMBL document CHEMBL6087482.
